# ASSAY: Liver microsomal stability
# APPLIED_CONDITIONS: mouse liver microsomes
REPORTED_METRIC: Microsomal Stability Clearance Category

[[record]]
compound = "CC(C)C[C@H](NC(=O)[C@@H]1Cc2c(F)c(F)c(c(F)c2F)Sc2cccc(c2)CC(=O)NC(C)(C)C(=O)N1)C(=O)[C@@]1(C)CO1"
measured_result = "High"

[[record]]
compound = "CC(C)C[C@H](NC(=O)[C@H](CCc1ccccc1)NC(=O)CN1CCOCC1)C(=O)N[C@@H](Cc1ccccc1)C(=O)N[C@@H](CC(C)C)C(=O)[C@@]1(C)CO1 [Carfilzomib, reference compound]"
measured_result = "High"

